# test.protocol: Pharmacokinetics experiment, intragastric single dose
# Type: in vivo
# settings: mouse, plasma; male mice, oral administration dosage 5 mg/Kg; read-out: Maximum plasma concentration Cmax
readout: Cmax (µM)
Express your answer in µM, writing the number without its unit.

Complete the entry with Cmax for Nc1nccc(Sc2cnc(N3CCC4(CC3)Cc3ccccc3[C@H]4N)n3ccnc23)c1Cl [Compound 4]
7

Complete the entry with Cmax for Nc1nccc(Sc2cnc(N3CCC4(CC3)Cc3nccnc3[C@H]4N)n3ccnc23)c1Cl [Compound 18]
6.5

Complete the entry with Cmax for Nc1nccc(Sc2cnc(N3CCC4(CC3)Cc3ccncc3[C@H]4N)n3cnnc23)c1Cl [Compound 7]
7.5

Complete the entry with Cmax for Nc1nccc(Sc2cnc(N3CCC4(CC3)Cc3ncccc3[C@H]4N)n3ccnc23)c1Cl [Compound 6]
6

Complete the entry with Cmax for Nc1nccc(Sc2cnc(N3CCC4(CC3)Cc3cccnc3[C@H]4N)n3ccnc23)c1Cl [Compound 10]
5

---

# test.protocol: Pharmacokinetics experiment, intragastric single dose
# Type: in vivo
# settings: mouse, plasma; male mice, oral administration dosage 5 mg/Kg; read-out: Half-life T1/2 (converted)
readout: half-life (h)
Express your answer in h, writing the number without its unit.

// below: answered compounds
- smiles.data: "Nc1nccc(Sc2cnc(N3CCC4(CC3)Cc3ccccc3[C@H]4N)n3ccnc23)c1Cl"
  half-life / h: 5.4
- smiles.data: "Nc1nccc(Sc2cnc(N3CCC4(CC3)Cc3ncccc3[C@H]4N)n3ccnc23)c1Cl"
  half-life / h: 3.1
- smiles.data: "Nc1nccc(Sc2cnc(N3CCC4(CC3)Cc3cccnc3[C@H]4N)n3ccnc23)c1Cl"
  half-life / h: 3.8

Complete the entry with half-life for "Nc1nccc(Sc2cnc(N3CCC4(CC3)Cc3nccnc3[C@H]4N)n3ccnc23)c1Cl"
3.5

Complete the entry with half-life for "Nc1nccc(Sc2cnc(N3CCC4(CC3)Cc3ccncc3[C@H]4N)n3cnnc23)c1Cl"
3

---

# test.protocol: Pharmacokinetics experiment, intragastric single dose
# Format: in vivo
# settings: mouse, plasma; male mice, oral administration dosage 5 mg/Kg
The entries below are paired with their reported bioavailability.
Respond with the figure and its unit, in that order.

// below: answered compounds
- smiles.data: "Nc1nccc(Sc2cnc(N3CCC4(CC3)Cc3cccnc3[C@H]4N)n3ccnc23)c1Cl"
  value.reported: "51%"
- smiles.data: "Nc1nccc(Sc2cnc(N3CCC4(CC3)Cc3ccncc3[C@H]4N)n3cnnc23)c1Cl"
  value.reported: "98%"
- smiles.data: "Nc1nccc(Sc2cnc(N3CCC4(CC3)Cc3nccnc3[C@H]4N)n3ccnc23)c1Cl"
  value.reported: "72%"

Complete the entry with bioavailability for "Nc1nccc(Sc2cnc(N3CCC4(CC3)Cc3ncccc3[C@H]4N)n3ccnc23)c1Cl"
37%

Complete the entry with bioavailability for "Nc1nccc(Sc2cnc(N3CCC4(CC3)Cc3ccccc3[C@H]4N)n3ccnc23)c1Cl"
34%

---

# tested.system: SHP2 E76A protein (Homo sapiens, UniProt Q06124, E76A)
# Sequence (Q06124 1-593 E76A): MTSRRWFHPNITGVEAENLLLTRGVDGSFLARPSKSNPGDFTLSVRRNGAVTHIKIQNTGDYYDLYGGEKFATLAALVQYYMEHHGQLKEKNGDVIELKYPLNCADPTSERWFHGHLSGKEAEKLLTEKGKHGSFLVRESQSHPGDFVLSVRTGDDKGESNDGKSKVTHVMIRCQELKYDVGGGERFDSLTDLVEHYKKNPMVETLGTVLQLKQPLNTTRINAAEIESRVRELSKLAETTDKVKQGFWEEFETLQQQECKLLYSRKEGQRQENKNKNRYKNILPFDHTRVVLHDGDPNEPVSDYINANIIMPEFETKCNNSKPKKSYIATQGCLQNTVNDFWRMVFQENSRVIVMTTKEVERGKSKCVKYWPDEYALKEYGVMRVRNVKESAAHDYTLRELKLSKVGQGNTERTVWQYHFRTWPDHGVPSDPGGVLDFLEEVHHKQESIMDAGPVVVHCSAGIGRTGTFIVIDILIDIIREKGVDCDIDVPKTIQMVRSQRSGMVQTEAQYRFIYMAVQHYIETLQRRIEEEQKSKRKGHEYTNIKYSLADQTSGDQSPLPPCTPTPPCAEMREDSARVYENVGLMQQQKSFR
# test.protocol: SHP2 enzyme activity inhibition test (DiFMUP substrate, fluorescence)
# settings: 50 ng SHP2 E76A, 20 min with compound, then 10 uM DiFMUP 20 min at room temperature
The entries below are paired with their reported IC50.
Express your answer in nM, writing the number without its unit.

Complete the entry with IC50 for "N#Cc1cccc2c1CC1(CCN(c3ncc(Sc4ccnc(N)c4Cl)c4nncn34)CC1)[C@@H]2N"
10

Complete the entry with IC50 for "Nc1nccc(Sc2cnc(N3CCC4(CC3)Cc3ccc(F)cc3[C@H]4N)n3cnnc23)c1Cl"
2

Complete the entry with IC50 for "Nc1nccc(Sc2cnc(N3CCC4(CC3)Cc3ncccc3[C@H]4N)n3ccnc23)c1Cl"
6

Complete the entry with IC50 for "Nc1nccc(Sc2cnc(N3CCC4(CC3)Cc3c(O)cccc3[C@H]4N)n3cnnc23)c1Cl"
2

Complete the entry with IC50 for "N[C@@H]1c2ncccc2CC12CCN(c1ncc(Sc3cccnc3C(F)(F)F)c3nncn13)CC2"
11

Complete the entry with IC50 for "Nc1nccc(Sc2cnc(N3CCC4(CC3)Cc3ccncc3[C@H]4N)n3cnnc23)c1Cl"
3
